# Tested on: TK-10 renal
# assayInfo: NCI-60 one-dose screen, 48 h (100 = growth as untreated, 0 = no growth, -100 = all killed)
# testConditions: 10 µM unless noted
This is part of a sample that, as a whole, favours compounds with a hit. Of some 83,000 tested, about 20% had one in any assay.
Exam item: assign 1.0 to entries whose growth is below 40% and 0.0 to entries at or above 40%. Note that a value of exactly 40% receives 0.0.

*Q* growth under 40%? Item: `COC(=O)/C=C1\SC(=Nc2ccc(C(F)(F)F)cc2)N(CCc2c[nH]c3ccccc23)C1=O`
*A* 1.0

*Q* growth under 40%? Item: `Cc1nn(-c2ccc(-c3ccc(OC(F)(F)F)cc3)cc2)c2nc(-c3ccccc3)nc(N)c12`
*A* 0.0

*Q* growth under 40%? Item: `C#C[C@@]1(O)[C@@H](CO)O[C@@H](n2cc(Br)c3c(N)ncnc32)[C@@H]1O`
*A* 1.0

*Q* growth under 40%? Item: COC1=CC2C=C(C3N(c4ccccc4)NC(=O)[C@@H]4CCCN34)C(=O)NC2C=C1 (stereo partly drawn)
*A* 0.0

*Q* growth under 40%? Item: `COC(=O)c1nc(-c2ccccc2)oc1S(=O)(=O)n1nc(-c2ccccc2)cc1N`
*A* 0.0

*Q* growth under 40%? Item: `COCCOCCOCc1n(Cc2ccc3ccccc3c2)c2ccccc2[n+]1Cc1ccc2ccccc2c1`
*A* 1.0

*Q* growth under 40%? Item: `CNCc1cccc2c1OCCOCCOCCN(CCN1CCOCC1)S(=O)(=O)c1ccc(cc1)-c1cnc(N)c(n1)C(=O)N2`
*A* 0.0

*Q* growth under 40%? Item: `COC(=O)CCc1cc(O)c2c(c1)[C@@H](C(=O)OC)[C@H](c1ccc(O)c(O)c1)O2`
*A* 0.0

*Q* growth under 40%? Item: `O=C1Nc2ccc(Cl)cc2/C1=N/c1nc(-c2ccc(Cl)cc2)cs1`
*A* 1.0

*Q* growth under 40%? Item: NC(=O)c1ccc(C2C3=C(CCCC3=O)OC3=C2C(=O)c2ccccc2C3=O)cc1 (stereo not drawn)
*A* 0.0

*Q* growth under 40%? Item: `COc1ccc(/C=C/C(=O)/C=C(/C=C/c2ccc(OC)c(OC)c2)OB(F)F)cc1OC`
*A* 1.0

*Q* growth under 40%? Item: `Cc1c(Cl)cccc1NC(=O)c1sc2nc3c(cc2c1N)CCCCC3`
*A* 0.0

*Q* growth under 40%? Item: OCCNc1nc(NCCO)nc(Nc2ccc(C3=NN(c4ccc(Cl)cc4)C(c4ccc(Cl)cc4)C3)cc2)n1 (stereo not drawn)
*A* 0.0

*Q* growth under 40%? Item: `O=C1C(Cl)=C(Nc2ccc3c(c2NC2=C(Cl)C(=O)c4ccccc4C2=O)C(=O)c2ccccc2C3=O)C(=O)c2ccccc21`
*A* 0.0

*Q* growth under 40%? Item: OCCNc1nc(NCCO)nc(Nc2ccc(C3=NN(c4cc(Cl)cc(Cl)c4)C(c4ccc(C(F)(F)F)cc4)C3)cc2)n1 (stereo not drawn)
*A* 1.0

*Q* growth under 40%? Item: `COC(=O)c1ccc2c(c1)n(Cc1ccc3ccccc3c1)c[n+]2Cc1ccc2ccccc2c1`
*A* 0.0

*Q* growth under 40%? Item: `COc1ccc2nc(-c3ccc(Cl)cc3)cc(-c3nnc(SC/C(=N/O)c4ccccc4)o3)c2c1`
*A* 0.0

*Q* growth under 40%? Item: `CCOC(=O)C1CCN(S(=O)(=O)/N=C2/NC(=O)NC2=C(Cl)Cl)CC1`
*A* 1.0
